Recorded Ki by entry
test-system: T1, MBP-hCTR.36-151-H6 produced in HEK293T cells (human, UniProt P30988-2 36-151, complex N-glycans at N73, N125, N130)
T1 sequence (looked up): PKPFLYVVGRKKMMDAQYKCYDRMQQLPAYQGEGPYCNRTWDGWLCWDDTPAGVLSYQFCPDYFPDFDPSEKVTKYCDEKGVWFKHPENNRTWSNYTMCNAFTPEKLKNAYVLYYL
measurement-protocol: fluorescence polarisation
Ends that are not written are not given here.

Asked: Ki for ANFLVRLQTYPRTNVGANTP-NH2 [AC413(6-25) Y25P] ?
Given back: 631 nM

Asked: Requested field: Ki. Item: VLGKLSQELHKLQTYPRTNTGSGTP-NH2 [sCT(8-32)]
Given back: ~3000 nM

Each recorded value in this set is attributed to paper PMC5551398.
